- SYSTEM_NAME: Bromodomain-containing protein 4 (Homo sapiens, UniProt O60885)
- TEST_PROTOCOL: Binding affinity to TEV cleavage site-fused-His-tagged BRD4(BD1) (unknown origin) by isothermal-titration calorimetry
// classify: if (Kd < 400 nM) t else f

structure_as_smiles=CCn1cnc2c1c(=O)[nH]c(=O)n2Cc1ccc(CNS(=O)(=O)c2ccc(C)cc2)cc1 system_name="Bromodomain-containing protein 4 (Homo sapiens, UniProt O60885)" class_assignment=f
structure_as_smiles=CCn1cnc2c1c(=O)[nH]c(=O)n2Cc1ccc(CNS(=O)(=O)c2ccc3c(c2)n(C)c(=O)n3C)cc1 system_name="Bromodomain-containing protein 4 (Homo sapiens, UniProt O60885)" class_assignment=f
structure_as_smiles=CCn1cnc2c1c(=O)[nH]c(=O)n2Cc1ccc(CNS(=O)(=O)c2ccc(OCc3ccccc3)cc2)cc1 system_name="Bromodomain-containing protein 4 (Homo sapiens, UniProt O60885)" class_assignment=f
structure_as_smiles=CCn1cnc2c1c(=O)[nH]c(=O)n2Cc1ccc(CNS(=O)(=O)c2ccc3c(c2)CCCC(=O)N3)cc1 system_name="Bromodomain-containing protein 4 (Homo sapiens, UniProt O60885)" class_assignment=t
structure_as_smiles=CCn1cnc2c1c(=O)[nH]c(=O)n2Cc1ccc(CNS(=O)(=O)c2cccc(-c3ccccc3)c2)cc1 system_name="Bromodomain-containing protein 4 (Homo sapiens, UniProt O60885)" class_assignment=f

Hi there! Is Kd for CCn1cnc2c1c(=O)[nH]c(=O)n2Cc1ccc(CNS(=O)(=O)c2ccc(Oc3ccccc3)cc2)cc1 below 400 nM, do you know?
t

// same read-out, input: CCn1cnc2c1c(=O)[nH]c(=O)n2Cc1ccc(CNS(=O)(=O)c2ccc3c(c2)CCC(=O)N3)cc1
t

What do we get for CCn1cnc2c1c(=O)[nH]c(=O)n2Cc1ccc(CNS(=O)(=O)c2ccc(OC)cc2)cc1 ?
f

----------
# maps each entry to its ΔTm
- SYSTEM_NAME: Bromodomain-containing protein 4 (Homo sapiens, UniProt O60885)
- TEST_PROTOCOL: Binding affinity to TEV cleavage site-fused-His-tagged BRD4(BD1) (unknown origin) assessed as change in melting temperature at 10 uM by RT-PCR based thermal shift assay
Value expressed in °C; do not type the unit.

In the examples that follow, each entry is paired with its recorded ΔTm.
structure_as_smiles=CCn1cnc2c1c(=O)[nH]c(=O)n2Cc1ccc(CNS(=O)(=O)c2ccc(OC)cc2)cc1 quantity_unit=°C value_observed=2.63
structure_as_smiles=CCn1cnc2c1c(=O)[nH]c(=O)n2Cc1ccc(CNS(=O)(=O)c2ccc(Oc3ccccc3)cc2)cc1 quantity_unit=°C value_observed=3.13
structure_as_smiles=CCn1cnc2c1c(=O)[nH]c(=O)n2Cc1ccc(CNS(=O)(=O)c2ccc3c(c2)CCCC(=O)N3)cc1 quantity_unit=°C value_observed=3.88
structure_as_smiles=CCn1cnc2c1c(=O)[nH]c(=O)n2Cc1ccc(CNS(=O)(=O)c2cccc(-c3ccccc3)c2)cc1 quantity_unit=°C value_observed=3.25
structure_as_smiles=CCn1cnc2c1c(=O)[nH]c(=O)n2Cc1ccc(CNS(=O)(=O)c2cnn(-c3ccccc3)c2)cc1 quantity_unit=°C value_observed=3.38

Endpoint output: ΔTm of CCn1cnc2c1c(=O)[nH]c(=O)n2Cc1ccc(CNS(=O)(=O)c2ccc(-c3ccccc3)cc2)cc1 . Value?
1.5
